# Tested System: Bromodomain-containing protein 9 [133-239] (Homo sapiens)
# Construct: 133-239
# Sequence (Q9H8M2 whole entry): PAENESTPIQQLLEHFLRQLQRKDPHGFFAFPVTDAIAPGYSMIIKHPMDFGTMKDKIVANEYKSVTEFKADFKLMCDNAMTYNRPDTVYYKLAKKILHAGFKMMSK
# Assay Summary: BRD9 Bromodomain TR-FRET Competition Binding Assay
// values below are reported IC50

1) CCS(=O)(=O)N(C)Cc1c(OC)cc(-c2cn(C)c(=O)c3cnccc23)cc1OC	< 10 nM

Continue with the next molecule.
IC50 in this record for COc1cc(-c2cn(C)c(=O)c3cnccc23)cc(OC)c1CN(C)C(=O)CCCCCOc1cccc2c1C(=O)N(C1CCC(=O)NC1=O)C2=O (configuration not stated) : < 10 nM
